# Tested on: acute myeloid leukemia cell line U937
# assayProcedure: Cancer cell proliferation inhibitory activity evaluation 2 (CCK-8), U937
# Format: cell-based
# conditionNotes: Homo sapiens, U-937; 10 μM, 72 hours, CCK-8 (Table 3); read-out: Cancer cell proliferation inhibitory activity U937
# Method: In order to identify whether the compounds have anticancer activity, the acute myeloid leukemia cell line U937, the acute lymphoblastic leukemia cell line Jurkat, the gastric cancer cell lines AGS, […], and the human lung cancer cell line A549 were used. The cell line was cultured using RPMI-1640 medium (U937, Jurkat, AGS, A549) or DMEM (Hs746T) medium containing 10% fetal bovine serum. […]
measurementType: inhibition at 10 µM

| molecularString | reportedResult |
| --- | --- |
| CCS(=O)(=O)N1CC[C@H](Nc2c(Br)cnc3nc(-c4cc(C)n(-c5cccc(OCCN6CCOCC6)c5)c4C)[nH]c23)C1 | 10 to 50% |
| Cc1cc(-c2nc3c(Nc4ccc5c(c4)OCO5)c(Br)cnc3[nH]2)c(C)n1-c1cccc(S(N)(=O)=O)c1 | 10 to 50% |

// Cc1ccc(C(=O)NCCN(C)C)cc1-n1c(C)cc(-c2nc3ncc(Br)c(Nc4cccc(S(N)(=O)=O)c4)c3[nH]2)c1C : inhibition at 10 µM value = < 10%

// Cc1cc(-c2nc3c(Nc4cccc(S(N)(=O)=O)c4)c(Br)cnc3[nH]2)c(C)n1-c1ccc2c(c1)OCO2 : inhibition at 10 µM value = 10 to 50%

// CCS(=O)(=O)N1CC[C@H](Nc2c(Br)cnc3[nH]c(-c4cc(C)n(-c5ccccc5Cl)c4C)nc23)C1 : inhibition at 10 µM value = < 10%

====

# assayedSystem: LRRK2 wild-type (Homo sapiens (Human), UniProt Q5S007)
# Sequence (Q5S007 whole entry, looked up): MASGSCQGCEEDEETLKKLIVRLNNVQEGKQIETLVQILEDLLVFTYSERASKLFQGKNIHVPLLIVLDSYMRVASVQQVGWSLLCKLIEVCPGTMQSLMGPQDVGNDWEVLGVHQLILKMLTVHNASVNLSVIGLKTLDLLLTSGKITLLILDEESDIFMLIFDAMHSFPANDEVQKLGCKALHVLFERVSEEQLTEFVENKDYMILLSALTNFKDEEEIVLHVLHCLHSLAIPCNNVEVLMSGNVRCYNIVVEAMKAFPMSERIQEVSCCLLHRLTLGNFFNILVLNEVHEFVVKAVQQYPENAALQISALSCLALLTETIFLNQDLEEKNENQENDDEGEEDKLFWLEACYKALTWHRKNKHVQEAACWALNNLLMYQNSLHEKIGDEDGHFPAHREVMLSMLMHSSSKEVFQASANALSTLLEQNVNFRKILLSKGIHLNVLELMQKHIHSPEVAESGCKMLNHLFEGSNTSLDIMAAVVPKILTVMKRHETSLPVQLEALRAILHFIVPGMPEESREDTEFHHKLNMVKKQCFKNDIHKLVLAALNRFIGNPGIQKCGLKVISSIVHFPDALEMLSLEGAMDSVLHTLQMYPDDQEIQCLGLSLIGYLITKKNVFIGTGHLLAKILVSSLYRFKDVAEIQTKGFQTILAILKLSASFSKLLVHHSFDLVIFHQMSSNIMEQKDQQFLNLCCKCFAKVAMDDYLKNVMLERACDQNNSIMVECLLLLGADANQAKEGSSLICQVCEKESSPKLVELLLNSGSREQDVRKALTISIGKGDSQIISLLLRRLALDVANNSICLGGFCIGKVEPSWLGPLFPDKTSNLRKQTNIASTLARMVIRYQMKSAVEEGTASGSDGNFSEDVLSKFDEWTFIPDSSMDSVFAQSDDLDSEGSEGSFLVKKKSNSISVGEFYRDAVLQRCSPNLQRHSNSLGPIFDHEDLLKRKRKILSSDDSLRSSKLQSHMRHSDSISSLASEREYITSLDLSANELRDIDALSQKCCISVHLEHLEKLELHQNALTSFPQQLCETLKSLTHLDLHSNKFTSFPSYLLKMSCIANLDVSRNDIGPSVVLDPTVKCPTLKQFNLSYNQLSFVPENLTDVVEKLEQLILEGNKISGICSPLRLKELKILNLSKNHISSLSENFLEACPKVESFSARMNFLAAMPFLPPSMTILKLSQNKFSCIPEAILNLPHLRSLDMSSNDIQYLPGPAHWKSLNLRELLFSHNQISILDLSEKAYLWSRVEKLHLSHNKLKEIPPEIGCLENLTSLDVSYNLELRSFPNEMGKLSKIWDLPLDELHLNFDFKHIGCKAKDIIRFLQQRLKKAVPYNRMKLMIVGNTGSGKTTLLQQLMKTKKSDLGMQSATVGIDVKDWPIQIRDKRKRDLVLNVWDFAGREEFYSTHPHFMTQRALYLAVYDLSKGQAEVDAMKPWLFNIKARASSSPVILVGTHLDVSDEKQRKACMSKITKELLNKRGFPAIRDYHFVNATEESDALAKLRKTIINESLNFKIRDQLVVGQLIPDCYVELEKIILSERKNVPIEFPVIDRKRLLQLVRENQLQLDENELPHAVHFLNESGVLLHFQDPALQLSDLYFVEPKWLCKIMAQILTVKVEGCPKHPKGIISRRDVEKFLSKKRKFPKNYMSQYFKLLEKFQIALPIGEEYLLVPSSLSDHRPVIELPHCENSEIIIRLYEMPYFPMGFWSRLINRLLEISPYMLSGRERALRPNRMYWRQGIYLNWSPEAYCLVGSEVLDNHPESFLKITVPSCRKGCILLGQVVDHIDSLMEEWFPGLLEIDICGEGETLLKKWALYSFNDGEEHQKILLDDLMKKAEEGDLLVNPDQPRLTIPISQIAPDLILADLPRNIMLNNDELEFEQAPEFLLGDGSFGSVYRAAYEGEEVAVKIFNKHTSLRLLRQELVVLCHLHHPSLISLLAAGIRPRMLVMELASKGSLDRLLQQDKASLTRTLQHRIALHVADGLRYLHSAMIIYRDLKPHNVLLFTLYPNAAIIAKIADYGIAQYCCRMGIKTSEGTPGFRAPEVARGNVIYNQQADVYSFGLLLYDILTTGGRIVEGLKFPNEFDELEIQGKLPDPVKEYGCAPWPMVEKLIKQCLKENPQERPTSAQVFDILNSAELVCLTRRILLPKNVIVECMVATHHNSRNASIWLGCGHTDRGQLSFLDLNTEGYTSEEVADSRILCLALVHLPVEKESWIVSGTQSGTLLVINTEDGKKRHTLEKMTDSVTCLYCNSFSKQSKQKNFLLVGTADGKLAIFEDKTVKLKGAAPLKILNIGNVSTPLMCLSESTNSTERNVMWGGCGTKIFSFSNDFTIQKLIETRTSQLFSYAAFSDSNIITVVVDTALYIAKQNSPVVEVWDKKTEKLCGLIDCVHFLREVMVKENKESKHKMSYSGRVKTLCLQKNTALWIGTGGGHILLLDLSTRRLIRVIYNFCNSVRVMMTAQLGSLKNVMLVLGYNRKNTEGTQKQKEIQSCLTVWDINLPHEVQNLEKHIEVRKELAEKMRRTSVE
# assayProcedure: Evaluation of inhibitory activity against LRRK2 (affinity bead competition binding), wild-type
# conditionNotes: 500 nM; read-out: Residual active values (%) LRRK2
# remaining binding at 0.5 µM values compiled below
Quick note: give the figure in %, leave out the unit.

Example entries and their recorded answers appear below.
| molecularString | measurementType | reportedResult |
| --- | --- | --- |
| CCS(=O)(=O)N1CC[C@H](Nc2c(Br)cnc3nc(-c4cc(C)n(-c5cc(NC(=O)CN6CCN(C)CC6)ccc5C)c4C)[nH]c23)C1 | remaining binding at 0.5 µM | 1.1 |
| Cc1ccc(C(=O)N2CCN(C)CC2)cc1-n1c(C)cc(-c2nc3ncc(Br)c(Nc4cccc(S(N)(=O)=O)c4)c3[nH]2)c1C | remaining binding at 0.5 µM | 43 |

# ---- query molecule ----
// Cc1ccc(C(=O)N2CCOCC2)cc1-n1c(C)cc(-c2nc3ncc(Br)c(Nc4cccc(S(N)(=O)=O)c4)c3[nH]2)c1C : remaining binding at 0.5 µM value = 40

====

# System: acute myeloid leukemia cell line U937
# assayProcedure: Cancer cell proliferation inhibitory activity evaluation 2 (CCK-8), U937
# Type: cell-based
# conditionNotes: Homo sapiens, U-937; 10 μM, 72 hours, CCK-8 (Table 3); read-out: Cancer cell proliferation inhibitory activity U937
measurementType: inhibition at 10 µM

Example entries and their recorded answers appear below.
| compound | inhibition at 10 µM |
| --- | --- |
| CCS(=O)(=O)N1CC[C@H](Nc2c(Cl)cnc3nc(-c4cc(C)n(-c5ccc(OCCN6CCOCC6)cc5)c4C)[nH]c23)C1 [Example 52] | > 50% |
| Cc1cc(-c2nc3ncc(Br)c(Nc4cccc(S(N)(=O)=O)c4)c3[nH]2)c(C)n1-c1ccccc1 [Example 43] | 10 to 50% |
| Cc1cc(-c2nc3c(Nc4cccc(S(N)(=O)=O)c4)c(Br)cnc3[nH]2)c(C)n1-c1ccc(C(=O)N2CCOCC2)cc1 [Example 27] | < 10% |

# ---- query compound ----
// COCCOc1ccc(Nc2c(Br)cnc3[nH]c(-c4cc(C)n(-c5cccc(S(N)(=O)=O)c5)c4C)nc23)cc1 [Example 46] : inhibition at 10 µM value = 10 to 50%
